Entries and their IC50
Target Entity: D168A mutant of the HCV NS3/4A 1b protease enzyme (Hepatitis C virus genotype 1b, UniProt P26663, D1194A)
Construct: 10× stocks of NS3/4A protease enzyme from Bioenza (Mountain View, Calif.); purchased Bioenza (Mountain View, Calif.)
Assay: HCV Protease FRET Assay (IC50_APP), D168A mutant
Assay type: biochemical
Run Parameters: apparent IC50, D168A mutant; read-out: IC50_APP, HCV D168A

[
  {
    "Compound": "C=C[C@@H]1C[C@]1(NC(=O)[C@@H]1C[C@@H]2CN1C(=O)[C@H](CCC(=O)C=C(C)C)NC(=O)OCCC/C=C/c1ccc3ccnc(c3c1)O2)C(=O)NS(=O)(=O)C1CC1",
    "IC50": "1000 to 10000 nM"
  },
  {
    "Compound": "C=C[C@@H]1C[C@]1(NC(=O)[C@@H]1C[C@@H](Oc2nccc3cc(OC)ccc23)CN1C(=O)[C@H](CCC(=O)C=C(C)C)NC(=O)OC(C)(C)C)C(=O)NS(=O)(=O)C1CC1",
    "IC50": "100 to 1000 nM"
  },
  {
    "Compound": "C=CC(=O)N(C)CC[C@H](NC(=O)OC(C)(C)C)C(=O)N1C[C@H](Oc2cc(-c3ccccc3)nc3cc(OC)ccc23)C[C@H]1C(=O)N[C@]1(C(=O)NS(=O)(=O)c2ccccc2)C[C@H]1C=C",
    "IC50": "1000 to 10000 nM"
  },
  {
    "Compound": "C=CC(=O)N[C@H](Cc1ccccc1)C(=O)N1C[C@H](Oc2nccc3cc(OC)ccc23)C[C@H]1C(=O)N[C@]1(C(=O)NS(=O)(=O)C2CC2)C[C@H]1C=C",
    "IC50": "100 to 1000 nM"
  }
]

--- query ---
Entry under test: C=C[C@@H]1C[C@]1(NC(=O)[C@@H]1C[C@@H](Oc2nccc3cc(OC)ccc23)CN1C(=O)[C@H](CCC(=O)C#CC(C)(C)C)NC(=O)OC(C)(C)C)C(=O)NS(=O)(=O)C1CC1 . Its IC50 was < 10 nM
